The values you see were collected from patent US20190194280A1.

# IC50-based peak height values compiled below
molecular target: Serum samples collected at week 16 from patients immunized with UBI AD vaccine (UB-311); assay: comp. ELISA, serum P207
// response body must contain only the number

- Binder: "EEISEVKMDA [Aβ-8-2 or APP 770 (E664-A673)]"
  IC50-based peak height: 0
- Binder: "HHQKLVFFAE [Aβ13-22 or APP 770 (H684-E693)]"
  IC50-based peak height: 0
- Binder: "YEVHHQKLVF [Aβ10-19 or APP 770 (Y681-F690)]"
  IC50-based peak height: 10
- Binder: "EFRHDSGYEV [Aβ3-12 or APP 770 (E674-V683)]"
  IC50-based peak height: 0
- Binder: "DSGYEVHHQK [Aβ7-16 or APP 770 (D678-K687)]"
  IC50-based peak height: 0

The reported value for EVKMDAEFRH [Aβ-4-6 or APP 770 (E668-H677)] in terms of IC50-based peak height is 1

The reported value for TEEISEVKMD [Aβ-9-1 or APP 770 (T663-D672)] in terms of IC50-based peak height is 0
